- protocol.text: Test 2: Pharmacokinetic test in rats
- Type: in vivo, rat
- applied.conditions: rat, blood, po, 15 mg/kg, Rat-3, oral 15 mg/kg, 60 min; read-out: Blood concentration
measure: concentration at 1 h (ng/mL)

molecule: CN(C(=O)[C@H](Cc1ccc(C(=N)NN)cc1)NS(=O)(=O)c1ccc2ccccc2c1)C1CCCC1 [Example 1]
measure: concentration at 1 h
observed.measurement: 110

---

- protocol.text: Test 2: Pharmacokinetic test in dogs
- Format: in vivo, dog
- applied.conditions: dog, blood, po, 10 mg/kg, dogs, oral 10 mg/kg, 20 min; read-out: Blood concentration, Average(+error)
measure: concentration at 20 min (ng/mL)

sample.smiles: CN(C(=O)[C@H](Cc1ccc(C(=N)NN)cc1)NS(=O)(=O)c1ccc2ccccc2c1)C1CCCC1
measure: concentration at 20 min
observed.measurement: 1050
